Values were extracted from the FLAb antibody collection (doi:10.7554/elife.23156).

Each record here notes measured yeast surface expression.
B1: scFv; the commonest letter at each place (parent)
chain 1: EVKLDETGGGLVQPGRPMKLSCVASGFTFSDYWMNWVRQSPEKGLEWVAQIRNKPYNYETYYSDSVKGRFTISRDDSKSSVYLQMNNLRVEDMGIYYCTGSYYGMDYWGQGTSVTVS
chain 2: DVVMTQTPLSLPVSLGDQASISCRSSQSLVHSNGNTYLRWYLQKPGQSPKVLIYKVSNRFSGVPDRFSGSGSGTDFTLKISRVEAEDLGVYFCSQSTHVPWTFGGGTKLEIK

# Variants of: B1
# measurement.description: yeast surface expression (ratio to wild type); higher = more expressed
# measurement.context: format: scFv 4-4-20, heavy + light

{"mutant.code": "chain 1 Y32F M34Q", "yeast surface expression": 0.502}
{"mutant.code": "chain 1 G104Y M105N", "yeast surface expression": 1.13}
{"mutant.code": "chain 1 Y103D G109H", "yeast surface expression": 0.441}
{"mutant.code": "chain 1 W33E", "yeast surface expression": 1.05}
{"mutant.code": "chain 1 F29P S30Y", "yeast surface expression": 0.751}
{"mutant.code": "chain 1 G100D", "yeast surface expression": 0.453}
{"mutant.code": "chain 1 Y32N V37G", "yeast surface expression": 2.76}
{"mutant.code": "chain 1 Y103G", "yeast surface expression": 1.14}
{"mutant.code": "chain 1 Y32I W36G", "yeast surface expression": 0.465}
{"mutant.code": "chain 1 Y102Q G104L W108S", "yeast surface expression": 0.348}
{"mutant.code": "chain 1 F29H W33R", "yeast surface expression": 0.182}
